# Acetylcholinesterase (Homo sapiens): pIC50 values follow
# Sequence (P22303 whole entry): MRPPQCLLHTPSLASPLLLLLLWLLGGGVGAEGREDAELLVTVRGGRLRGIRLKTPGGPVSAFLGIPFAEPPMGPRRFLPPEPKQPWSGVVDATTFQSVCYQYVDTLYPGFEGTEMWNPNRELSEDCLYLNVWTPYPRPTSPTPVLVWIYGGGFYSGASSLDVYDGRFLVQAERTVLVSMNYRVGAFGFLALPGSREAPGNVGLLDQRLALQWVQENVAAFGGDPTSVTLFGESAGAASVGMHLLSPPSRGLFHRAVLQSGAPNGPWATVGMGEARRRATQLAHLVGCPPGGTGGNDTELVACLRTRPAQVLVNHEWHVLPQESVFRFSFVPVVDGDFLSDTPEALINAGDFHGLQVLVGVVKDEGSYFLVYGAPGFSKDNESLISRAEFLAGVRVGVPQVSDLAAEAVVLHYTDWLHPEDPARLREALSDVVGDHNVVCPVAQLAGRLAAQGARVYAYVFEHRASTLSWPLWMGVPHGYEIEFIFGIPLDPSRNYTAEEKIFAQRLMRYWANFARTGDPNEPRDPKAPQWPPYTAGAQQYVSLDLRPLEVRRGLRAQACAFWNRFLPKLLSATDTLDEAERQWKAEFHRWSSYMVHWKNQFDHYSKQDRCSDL
pIC50: −log10 of the molar value.
readout_type: pIC50

[[record]]
compound = "COc1cc(C(C#N)N2CCOCC2)ccc1O (racemic)"
observed_measurement = 3.39

[[record]]
compound = "COc1ccc(C(C#N)N2CCCCC2)cc1OC (racemic)"
observed_measurement = 4.35

[[record]]
compound = "COc1ccc(C(C#N)N2CCCCC2)cc1O (racemic)"
observed_measurement = 3.32

[[record]]
compound = "N#CC(c1ccc2c(c1)OCO2)N1CCCC1 (racemic)"
observed_measurement = 4.29

[[record]]
compound = "CCOP(=S)(OCC)Oc1cc(C)nc(C(C)C)n1 [DIMPYLATE]"
observed_measurement = 5.72

[[record]]
compound = "COc1ccc(C(C#N)N2CCCC2)cc1O (racemic)"
observed_measurement = 3.40

[[record]]
compound = "COc1cc(C(C#N)N2CCCCC2)cc(OC)c1OC (racemic)"
observed_measurement = 3.42

[[record]]
compound = "COc1cc(C(C#N)N2CCCC2)cc(OC)c1OC (racemic)"
observed_measurement = 3.49

[[record]]
compound = "COc1cc(C(C#N)N2CCN(C)CC2)cc(OC)c1OC (racemic)"
observed_measurement = 3.39

[[record]]
compound = "COc1cc(C(C#N)N2CCOCC2)cc(OC)c1OC (racemic)"
observed_measurement = 3.41

[[record]]
compound = "N#CC(c1ccc(O)cc1)N1CCCCC1 (racemic)"
observed_measurement = 4.03

[[record]]
compound = "CN1CCN(C(C#N)c2ccc3c(c2)OCO3)CC1 (racemic)"
observed_measurement = 3.56

[[record]]
compound = "COc1ccc(C(C#N)N2CCCC2)cc1OC (racemic)"
observed_measurement = 4.38

[[record]]
compound = "N#CC(c1ccc2c(c1)OCO2)N1CCOCC1 (racemic)"
observed_measurement = 4.24

[[record]]
compound = "COc1cc(C(C#N)N2CCN(C)CC2)ccc1O (racemic)"
observed_measurement = 3.47

[[record]]
compound = "COc1cc(C(C#N)N2CCCC2)ccc1O (racemic)"
observed_measurement = 3.45

[[record]]
compound = "N#CC(c1ccc2c(c1)OCO2)N1CCCCC1 (racemic)"
observed_measurement = 4.21

[[record]]
compound = "COc1ccc(C(C#N)N2CCN(C)CC2)cc1O (racemic)"
observed_measurement = 3.46

[[record]]
compound = "COc1ccc(C(C#N)N2CCOCC2)cc1O (racemic)"
observed_measurement = 3.44

[[record]]
compound = "COc1ccc(C(C#N)N2CCN(C)CC2)cc1OC (racemic)"
observed_measurement = 3.42

[[record]]
compound = "COc1ccc(C(C#N)N2CCOCC2)cc1OC (racemic)"
observed_measurement = 4.27

[[record]]
compound = "COc1cc(C(C#N)N2CCCCC2)ccc1O (racemic)"
observed_measurement = 3.35


Measured values drawn from ChEMBL document CHEMBL3232744 for this set.
